Observed GI50 for K-562 cells, reported per entry below.
readout-label: GI50 (nM)

The following compounds have reported results that may help.
{"columns": ["compound", "GI50 / nM"],
 "data": [
  ["Cc1nc2c([nH]1)C(c1ccc(Cl)cc1)N(c1cc(C)c3nnc(C(F)F)n3c1)C2=O (centres unmarked)", 214],
  ["COc1ncccc1-c1nc2c(n1C(C)C)[C@@H](c1ccc(Cl)cc1)N(c1cc(C)c3nnc(C(F)F)n3n1)C2=O", 30.8]
]}

(a) COc1cc(N2C(=O)c3nc(C4=CCN(C)CC4)n(C(C)C)c3C2c2ccc(Cl)cc2)cc2c1nnn2C (centres unmarked)
(b) COc1ncccc1-c1nc2c(n1C(C)C)[C@@H](c1ccc(Cl)cc1)N(c1cc(C)c3nnn(C)c3n1)C2=O
Query string: Which value of GI50 is smaller, the one for a or the one for b ? Please respond with the label that marks your chosen entry.
Result string: b
(b: 8.73 nM, a: 300 nM)

---

pIC50: −log10 of the molar value.
These records show pIC50 for BRD2 (His-Brd2(60-472)) (Homo sapiens (Human)).
readout-label: pIC50

Completed entries (count: 2):
{"columns": ["molecule", "pIC50"],
 "data": [
  ["Cc1cc(N2C(=O)c3nc(-c4nccs4)n(C4CC4)c3C2c2ccc(Cl)cc2)cn(C)c1=O (stereo not shown)", 7.23],
  ["Cc1cc(N2C(=O)c3c(nc(C)n3C3CC3)C2c2ccc(Cl)cc2)cn2c(C)nnc12 (stereo not shown)", 7.17]
]}

(A) COc1ccc(-c2nc3c(n2C(C)C)[C@@H](c2ccc(Cl)cc2)N(c2cc(OC)c4nnn(C)c4c2)C3=O)cn1
(B) Cc1cc(N2C(=O)c3c(nc(C)n3C(C)C)C2c2ccc(Cl)cc2)cc2c1nnn2C (racemic)
Query string: Lab log: flag the item ( A or B ) with the smaller pIC50 figure. Pick one and reply with its label.
Result string: A
(A: 7.06, B: 7.57)

---

# target-or-system: CREBBP bromodomain (His-CREBBP(1081-1197)) (Homo sapiens (Human), UniProt Q92793)
# Sequence (Q92793 1081-1197): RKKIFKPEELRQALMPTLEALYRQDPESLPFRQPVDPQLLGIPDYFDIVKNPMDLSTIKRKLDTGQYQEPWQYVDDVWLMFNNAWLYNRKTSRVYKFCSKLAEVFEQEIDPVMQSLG
# test: AlphaScreen in-vitro binding assay for CREBBP
# run-conditions: single determination or n ≧ 2 independent determinations, read-out: Biochemical IC50 CREBBP
readout-label: IC50 (µM)

{"columns": ["compound", "IC50, µM"],
 "data": [
  ["COc1ncccc1-c1nc2c(n1C(C)C)C(c1ccc(Cl)cc1)N(c1cc(C)c3nnc(C(F)F)n3c1)C2=O (stereo not shown)", 27.5],
  ["Cc1cc(N2C(=O)c3nc(C4=CCCN(C)C4)n(C(C)C)c3C2c2ccc(Cl)cc2)cn2c(CF)nnc12 (stereo not shown)", 17.5]
]}

(A) COc1ncccc1-c1nc2c([nH]1)C(c1ccc(Cl)cc1)N(c1cc(C)c3nnn(C)c3c1)C2=O (stereo not shown)
(B) COc1ncccc1-c1nc2c(n1C(C)C)C(=O)N(c1cc(C)c(=O)n(C)c1)[C@@H]2c1ccc(Cl)cc1
Query string: Given the listed items, does A or B have the lesser reported IC50? Pick one; state its label.
Result string: B

---

# Tested on: K-562 cells;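 note: cellular ATP measured by luminescence after 4 days of exposure, 3-fold dilution series from 10 µM, DMSO vehicle-treated cells define 100%, cell-free medium wells −100%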
readout-label: GI50 (µM)

{"columns": ["compound", "GI50 (µM)"],
 "data": [
  ["Cc1cc(N2C(=O)c3nc(C)n(C(C)C)c3C2c2ccc(Cl)cc2)cc2c1nnn2C (racemic) [Example 2]", 0.0959]
]}

(A) Cc1cc(N2C(=O)c3nc(C4=CCOCC4)n(C(C)C)c3[C@H]2c2ccc(Cl)cc2)cn2c(C)nnc12 [Example 84]
(B) Cc1cc(N2C(=O)c3nc(C4=CCCN(C)C4)n(C(C)C)c3C2c2ccc(Cl)cc2)cn2c(CF)nnc12 (stereo not drawn) [Example 91]
(C) Cc1cc(N2C(=O)c3nc(C4=CCN(C(=O)NC(C)(C)C)CC4)n(C(C)C)c3C2c2ccc(Cl)cc2)cn2c(C)nnc12 (stereo not drawn) [Example 72]
Query string: Sort low-to-high on GI50, please. Please express your ranking as an ordered list of the labels.
Result string: A, B, C
(A: 0.0732 µM, B: 0.353 µM, C: 1.34 µM)

(1) COc1ncccc1-c1nc2c([nH]1)[C@@H](c1ccc(Cl)cc1)N(c1cc(C)c3nnn(C)c3n1)C2=O [Example 166]
(2) CCn1c(C)nc2c1C(=O)N(c1cc(C)c3nnn(C)c3c1)C2c1ccc(Cl)cc1 (stereo not drawn) [Example 121]
(3) Cc1cc(N2C(=O)c3nc(C4CC4)n(C(C)C)c3C2c2ccc(Cl)cc2)cn(C)c1=O (stereo not drawn) [Example 28]
(4) Cc1cc(N2C(=O)c3nc(C4=CCOCC4)[nH]c3[C@H]2c2ccc(Cl)cc2)cn2c(C)nnc12 [Example 167]
(5) COc1ccc(-c2nc3c(n2C(C)C)C(c2ccc(Cl)cc2)N(c2cc(C)c4nnc(C(F)F)n4n2)C3=O)cn1 (stereo not drawn) [Example 149]
Query string: Order the items by recorded GI50; the first position goes to the largest value. Give me the labels in the order the question wants.
Result string: 3, 4, 5, 1, 2

---

Reported GI50 values, K-562 cells.
readout-label: GI50 (nM)

Use these answered entries as a reference point.
{"columns": ["compound", "scale-unit", "GI50"],
 "data": [
  ["Cc1cc(N2C(=O)c3nc(C4=CC(C)(C)NC(C)(C)C4)n(C(C)C)c3C2c2ccc(Cl)cc2)cn2c(CF)nnc12 (stereo not drawn)", "nM", 270],
  ["Cc1cc(N2C(=O)c3nc(C4=CCN(C(=O)OC(C)C)CC4)n(C(C)C)c3C2c2ccc(Cl)cc2)cn2c(C)nnc12 (stereo not drawn)", "nM", 228],
  ["Cc1cc(N2C(=O)c3c(nc(C)n3C(C)C)C2c2ccc(Cl)cc2)cc2c1nnn2C (racemic)", "nM", 55.1],
  ["Cc1cc(N2C(=O)c3ncn(C(C)C)c3C2c2ccc(Cl)cc2)cc2c1nnn2C (stereo not drawn)", "nM", 92.5],
  ["Cc1cc(N2C(=O)c3nc(C)n(C(C)C)c3[C@H]2c2ccc(Cl)cc2)cn2c(C)nnc12", "nM", 117],
  ["COc1ccc(-c2nc3c(n2C(C)C)[C@@H](c2ccc(Cl)cc2)N(c2cc(OC)c4nnn(C)c4c2)C3=O)cn1", "nM", 268]
]}

(1) Cc1cc(N2C(=O)c3c(nc(C)n3C(C)C)[C@H]2c2ccc(Cl)cc2)cc2c1nnn2C
(2) COc1ccc(-c2nc3c([nH]2)C(c2ccc(Cl)cc2)N(c2cc(C)c(=O)n(C)c2)C3=O)cn1 (stereo not drawn)
(3) Cc1cc(N2C(=O)c3nc(C4=CCOCC4)n(C(C)C)c3[C@H]2c2ccc(Cl)cc2)nc2c1nnn2C
Query string: Arrange these 3 compounds in increasing order of GI50. Your answer should be the labels, listed in the requested order.
Result string: 3, 1, 2

(P) COc1ccc(-c2nc3c(n2C(C)C)C(c2ccc(Cl)cc2)N(c2cc(C)c4nnc(C)n4c2)C3=O)cn1 (stereo not drawn)
(Q) Cc1cc(N2C(=O)c3nc(C4CC4)n(C)c3C2c2ccc(Cl)cc2)cn2c(C)nnc12 (stereo not drawn)
Query string: Which entry shows the lesser value of GI50 here, P or Q ? Give the label of your selection.
Result string: P
(P: 258 nM, Q: 572 nM)

---

# target-or-system: BRD2 (His-Brd2(60-472)) (Homo sapiens (Human), UniProt P25440)
# Sequence (P25440 60-472): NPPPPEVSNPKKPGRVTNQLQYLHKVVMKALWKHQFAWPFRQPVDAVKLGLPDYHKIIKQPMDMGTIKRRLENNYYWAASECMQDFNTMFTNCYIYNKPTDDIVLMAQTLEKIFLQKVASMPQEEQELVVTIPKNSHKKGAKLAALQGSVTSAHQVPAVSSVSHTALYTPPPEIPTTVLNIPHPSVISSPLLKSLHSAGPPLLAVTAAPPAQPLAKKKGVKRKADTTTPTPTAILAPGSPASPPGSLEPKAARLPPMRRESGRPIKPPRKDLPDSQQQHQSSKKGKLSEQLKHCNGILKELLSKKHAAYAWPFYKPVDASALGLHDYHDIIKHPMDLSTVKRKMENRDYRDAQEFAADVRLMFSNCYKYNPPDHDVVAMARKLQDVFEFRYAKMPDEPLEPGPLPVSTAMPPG
readout-label: IC50 (nM)

Example entries begin here.
{"columns": ["compound", "target-or-system", "IC50 / nM"],
 "data": [
  ["Cc1cc(N2C(=O)c3nc(C4CCN(CC(C)(C)C)CC4)n(C(C)C)c3C2c2ccc(Cl)cc2)cn2c(C)nnc12 (stereo not drawn)", "BRD2 (His-Brd2(60-472)) (Homo sapiens (Human), UniProt P25440)", 41],
  ["COc1ncc(-c2nc3c([nH]2)C(c2ccc(Cl)cc2)N(c2cc(OC)c4nnc(C)n4c2)C3=O)c(OC)n1 (stereo not drawn)", "BRD2 (His-Brd2(60-472)) (Homo sapiens (Human), UniProt P25440)", 360],
  ["COc1ccc(-c2nc3c(n2C)C(c2ccc(Cl)cc2)N(c2cc(C)c4nnc(C)n4c2)C3=O)cn1 (stereo not drawn)", "BRD2 (His-Brd2(60-472)) (Homo sapiens (Human), UniProt P25440)", 49],
  ["Cc1cc(N2C(=O)c3nc(-c4nccs4)n(C(C)C)c3C2c2ccc(Cl)cc2)cn(C)c1=O (stereo not drawn)", "BRD2 (His-Brd2(60-472)) (Homo sapiens (Human), UniProt P25440)", 55],
  ["Cc1cc(N2C(=O)c3nc(C4CCOCC4)n(C(C)C)c3[C@H]2c2ccc(Cl)cc2)cc2c1nnn2C", "BRD2 (His-Brd2(60-472)) (Homo sapiens (Human), UniProt P25440)", 13]
]}

(P) CCn1c(C)nc2c1[C@@H](c1ccc(Cl)cc1)N(c1cc(C)c3nnn(C)c3c1)C2=O
(Q) COc1ccc(-c2nc3c([nH]2)C(c2ccc(Cl)cc2)N(c2cc(C)c(=O)n(C)c2)C3=O)cn1 (stereo not drawn)
Query string: Field: lower recorded IC50 (choose P or Q ) Kindly state the label of the option you pick.
Result string: P
(P: 35.5 nM, Q: 68 nM)

(a) Cc1cc(N2C(=O)c3nc(C4CCNCC4)n(C(C)C)c3C2c2ccc(Cl)cc2)cn2c(C)nnc12 (stereo not drawn)
(b) Cc1cc(N2C(=O)c3nc(C)n(C(C)C)c3[C@H]2c2ccc(Cl)cc2)cn2c(C)nnc12
Query string: Two entries are listed, a and b . Which one carries the higher IC50? Answer by stating the label of the chosen item.
Result string: b

(I) Cc1cc(N2C(=O)c3nc(N4CCOCC4)n(C)c3C2c2ccc(Cl)cc2)cn(C)c1=O (stereo not drawn)
(II) COc1ncccc1-c1nc2c([nH]1)[C@@H](c1ccc(Cl)cc1)N(c1cc(C)c3nnc(C(F)F)n3c1)C2=O
(III) COc1ccc(-c2nc3c([nH]2)C(c2ccc(Cl)cc2)N(c2cc(C)c4nnc(C(F)F)n4c2)C3=O)cn1 (stereo not drawn)
(IV) COc1ccc(-c2nc3c(n2C)C(c2ccc(Cl)cc2)N(c2cc(C)c(=O)n(C)c2)C3=O)cn1 (stereo not drawn)
Query string: Put the compounds in ascending order of IC50. // rank by listing labels in the order requested
Result string: II, III, IV, I
